Recorded values, source patent US7030287B2.

- Assay method text: Polluted soil experiment (Examples 4 to 7): 1,1-dichloroethylene concentration in polluted soil by GC-MS
- Study conditions: Example 4, 1 wt % material in polluted soil (about 50 μg/L initially), diammonium hydrogen phosphate fed
Measured property: 1,1-dichloroethylene concentration after 20 days

>  <Molecule>
CCCCCCCC/C=C\CCCCCCCC(=O)O [Oleic acid, reference compound]

>  <Value observed>
21 µg/L

$$$$
>  <Molecule>
CCCCCCCC(=O)O [Caprylic acid, reference compound]

>  <Value observed>
16 µg/L

$$$$
>  <Molecule>
CCCCCCCCCCCCCCCCCCCCCCO

>  <Value observed>
21 µg/L

$$$$
>  <Molecule>
CC(O)C(=O)O (stereo not shown) [Lactic acid, reference compound]

>  <Value observed>
20 µg/L

$$$$
>  <Molecule>
CCCCCCCCCCCCCCCCCC(=O)O[C@H]1CC[C@@]2(C)C(=CC[C@H]3[C@@H]4CC[C@H]([C@H](C)CCCC(C)C)[C@@]4(C)CC[C@@H]32)C1 [Cholesterol stearate]

>  <Value observed>
20 µg/L

$$$$
>  <Molecule>
CCO [Ethanol, reference compound]

>  <Value observed>
19 µg/L

$$$$
>  <Molecule>
CCCCCCCCCCCCCCCCCC(=O)O

>  <Value observed>
24 µg/L

$$$$
